In this section we review reported pEC50 values for a set of molecules.
# assayedTarget: TLR2 (Homo sapiens, UniProt O60603)
# Sequence (O60603 21-784): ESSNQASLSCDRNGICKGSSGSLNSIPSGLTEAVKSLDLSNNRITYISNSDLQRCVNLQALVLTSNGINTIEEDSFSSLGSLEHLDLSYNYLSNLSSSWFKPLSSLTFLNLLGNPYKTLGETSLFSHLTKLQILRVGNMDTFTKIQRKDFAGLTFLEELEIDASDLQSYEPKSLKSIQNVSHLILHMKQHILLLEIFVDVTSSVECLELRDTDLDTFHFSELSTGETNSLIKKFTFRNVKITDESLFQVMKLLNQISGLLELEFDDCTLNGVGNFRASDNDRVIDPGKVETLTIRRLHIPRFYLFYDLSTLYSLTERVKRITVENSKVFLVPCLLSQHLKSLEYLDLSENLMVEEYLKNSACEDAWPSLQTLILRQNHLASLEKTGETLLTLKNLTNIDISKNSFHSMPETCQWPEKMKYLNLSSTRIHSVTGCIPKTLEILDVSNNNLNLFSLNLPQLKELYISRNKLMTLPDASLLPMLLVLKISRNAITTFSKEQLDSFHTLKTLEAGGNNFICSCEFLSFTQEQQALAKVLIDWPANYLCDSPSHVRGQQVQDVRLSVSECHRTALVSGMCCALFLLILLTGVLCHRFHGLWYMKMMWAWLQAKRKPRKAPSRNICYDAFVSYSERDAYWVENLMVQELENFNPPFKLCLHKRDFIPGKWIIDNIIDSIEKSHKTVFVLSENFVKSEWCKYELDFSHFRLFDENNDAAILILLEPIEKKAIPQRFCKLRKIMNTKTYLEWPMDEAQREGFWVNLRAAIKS
# assayMethodText: TLR2 agonist screening assay, HEK-Blue TLR2 reporter cell line (NF-kB-driven SEAP, absorbance at 600 nm)
# Format: cell-based
# Set-up: host or cells: HEK-293 (HEK-Blue TLR2 reporter cell line)
# conditionNotes: HEK-Blue TLR2 reporter cells, agonist mode; average of all runs (Table 3)
pEC50: −log10 of the molar value.

Reference set (4 entries):
CCCCCCNC(=O)[C@@H]1C[C@H](C(=O)NCCCCCC)CN(C(=O)c2ccc(C(=O)N3C[C@@H](C(=O)N[C@H]4C[C@@H]4c4ccccc4)[C@H](C(=O)N[C@H]4C[C@@H]4c4ccccc4)C3)cc2)C1 (relative stereo) [Compound 038] : 6.00 to 6.45
CCCCCCCC(=O)N1CCN(C(=O)c2ccc(C(=O)N3C[C@@H](C(=O)N[C@H]4C[C@@H]4c4ccccc4)[C@H](C(=O)N[C@H]4C[C@@H]4c4ccccc4)C3)cc2)C[C@@H]1C(=O)NCCCCCC [Compound 032] : 7.30 to 10.00
CCCCCCNC(=O)C1CN(C(=O)c2ccc(C(=O)N3C[C@@H](C(=O)N[C@H]4C[C@@H]4c4ccccc4)[C@H](C(=O)N[C@H]4C[C@@H]4c4ccccc4)C3)cc2)CCN1C(=O)CCCCC (some centres unmarked) [Compound 050] : 6.46 to 7.29
CCCCCCCCCCCCCCNC(=O)[C@@H]1CN(C(=O)c2ccc(C(=O)N3C[C@@H](C(=O)N[C@H]4C[C@@H]4c4ccccc4)[C@H](C(=O)N[C@H]4C[C@@H]4c4ccccc4)C3)cc2)C[C@@H]1O (single isomer, unassigned) [Compound 044] : 7.30 to 10.00

Proceeding to the next molecule to report its pEC50.
input: For CCCCCCNC(=O)C1CN(C(=O)c2ccc(C(=O)N3C[C@@H](C(=O)N[C@H]4C[C@@H]4c4ccccc4)[C@H](C(=O)N[C@H]4C[C@@H]4c4ccccc4)C3)cc2)CCN1C(=O)NCCCCCC (some centres unmarked) [Compound 049] , what is its reported pEC50?
output: < 6.00
